Tested Target: complement C5 (full length) (Homo sapiens, UniProt P01031)
Sequence (P01031 whole entry): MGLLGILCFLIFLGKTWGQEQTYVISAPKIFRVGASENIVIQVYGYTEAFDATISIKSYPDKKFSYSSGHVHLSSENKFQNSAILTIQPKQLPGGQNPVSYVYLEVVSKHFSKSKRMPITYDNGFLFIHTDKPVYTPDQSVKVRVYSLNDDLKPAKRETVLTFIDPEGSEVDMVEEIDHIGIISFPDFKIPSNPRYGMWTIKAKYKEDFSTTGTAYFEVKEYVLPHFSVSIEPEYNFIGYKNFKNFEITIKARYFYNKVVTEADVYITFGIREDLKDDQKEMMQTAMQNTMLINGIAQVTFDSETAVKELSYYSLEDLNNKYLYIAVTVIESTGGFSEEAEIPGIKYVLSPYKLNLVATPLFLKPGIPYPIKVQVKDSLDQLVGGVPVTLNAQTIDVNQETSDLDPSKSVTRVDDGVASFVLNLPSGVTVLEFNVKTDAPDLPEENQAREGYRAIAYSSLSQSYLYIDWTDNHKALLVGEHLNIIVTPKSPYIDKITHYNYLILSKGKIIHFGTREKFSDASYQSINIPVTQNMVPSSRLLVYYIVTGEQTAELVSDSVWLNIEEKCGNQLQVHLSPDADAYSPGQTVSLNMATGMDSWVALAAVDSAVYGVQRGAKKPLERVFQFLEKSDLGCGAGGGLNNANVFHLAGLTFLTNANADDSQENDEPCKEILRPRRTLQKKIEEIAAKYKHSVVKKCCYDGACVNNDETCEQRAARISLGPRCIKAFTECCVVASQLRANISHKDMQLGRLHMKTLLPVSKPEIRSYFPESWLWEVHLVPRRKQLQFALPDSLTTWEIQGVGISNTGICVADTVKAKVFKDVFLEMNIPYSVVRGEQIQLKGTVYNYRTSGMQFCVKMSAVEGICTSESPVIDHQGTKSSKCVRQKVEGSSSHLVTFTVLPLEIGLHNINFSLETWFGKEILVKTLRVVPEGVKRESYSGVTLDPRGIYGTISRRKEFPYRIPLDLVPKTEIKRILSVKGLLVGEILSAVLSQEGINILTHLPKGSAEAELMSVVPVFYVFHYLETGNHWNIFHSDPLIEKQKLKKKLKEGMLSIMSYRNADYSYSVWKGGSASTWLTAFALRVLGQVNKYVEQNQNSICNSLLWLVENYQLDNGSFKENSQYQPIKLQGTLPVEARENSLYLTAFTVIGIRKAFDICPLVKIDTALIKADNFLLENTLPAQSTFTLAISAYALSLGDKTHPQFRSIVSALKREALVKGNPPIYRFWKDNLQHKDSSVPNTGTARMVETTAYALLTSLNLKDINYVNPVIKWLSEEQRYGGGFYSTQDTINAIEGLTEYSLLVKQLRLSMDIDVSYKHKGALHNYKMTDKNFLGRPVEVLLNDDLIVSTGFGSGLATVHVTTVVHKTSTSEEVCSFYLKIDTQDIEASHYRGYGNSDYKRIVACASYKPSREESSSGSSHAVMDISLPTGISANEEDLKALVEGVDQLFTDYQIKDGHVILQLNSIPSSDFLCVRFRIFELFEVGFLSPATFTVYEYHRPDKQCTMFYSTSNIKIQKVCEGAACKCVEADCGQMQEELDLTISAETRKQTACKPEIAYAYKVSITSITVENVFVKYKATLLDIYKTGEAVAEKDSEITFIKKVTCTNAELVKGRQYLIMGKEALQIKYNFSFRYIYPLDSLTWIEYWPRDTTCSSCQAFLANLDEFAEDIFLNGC
Procedure Summary: filter; dot blot, DPBS
Reported Conditions: tags: Quidel / Complement Technologies A120.14 / Advanced Research Technologies
Measurement Label: pKd
Conceptually, pKd converts a concentration in mol/L into minus its log10.

doped clone SEQ 95 (mixed, dRmY: A,G deoxy; C,U 2'-OMe) RNA: GGGAGAGGAGAGAACGUUCUACCUUAGGUUCGCACUGUCAUACAUACACACGGGCAAUCGGUUACGACUAGCAUCGAUG: 7.04

Next binder, please.
What does the data say about its pKd? Entry: doped clone SEQ 91 (mixed, dRmY: A,G deoxy; C,U 2'-OMe) RNA: GGGAGAGGAGAGAACGUUCUACCUUGGUUUGGCCCAGGCAUAUAUACGCAGGGAUUGAUCCGUUACGACUAGCAUCGAUG
7.14
